testedSystem: BCRP (Homo sapiens, UniProt Q9UNQ0)
Sequence (Q9UNQ0 whole entry): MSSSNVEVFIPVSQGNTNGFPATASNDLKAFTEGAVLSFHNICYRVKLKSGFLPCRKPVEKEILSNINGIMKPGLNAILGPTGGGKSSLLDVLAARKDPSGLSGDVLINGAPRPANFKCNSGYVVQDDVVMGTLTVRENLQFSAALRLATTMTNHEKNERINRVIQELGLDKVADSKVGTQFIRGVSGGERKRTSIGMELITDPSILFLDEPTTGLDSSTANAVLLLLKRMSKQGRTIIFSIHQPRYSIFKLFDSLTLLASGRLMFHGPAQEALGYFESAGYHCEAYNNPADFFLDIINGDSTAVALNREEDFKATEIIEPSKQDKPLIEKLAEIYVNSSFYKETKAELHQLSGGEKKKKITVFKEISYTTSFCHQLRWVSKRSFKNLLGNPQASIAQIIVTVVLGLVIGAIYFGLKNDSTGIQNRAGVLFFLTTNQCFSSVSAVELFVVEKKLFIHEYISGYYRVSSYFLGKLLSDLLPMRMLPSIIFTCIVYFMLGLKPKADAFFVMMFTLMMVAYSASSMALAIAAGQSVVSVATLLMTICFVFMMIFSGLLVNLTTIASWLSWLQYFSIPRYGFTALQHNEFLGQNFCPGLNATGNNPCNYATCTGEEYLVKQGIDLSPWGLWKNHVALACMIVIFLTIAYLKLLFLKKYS
assayText: Inhibition of BCRP-mediated transport of mitoxantrone across Caco-2 cell monolayers
measurementParameters: IC50 on Papp,BA of mitoxantrone, Caco-2 monolayers; mitoxantrone 5 μM; 50% decrease of Papp,BA
Item-by-item account of pIC50
API: returns pIC50 as number; meaning -log10 of concentration in mol/L.

COc1cc2c(cc1OC)CN(CCc1ccc(NC(=O)c3cc(OC)c(OC)cc3NC(=O)c3cnc4ccccc4c3)cc1)CC2	6.00

API: the following record is the query input.
Entry COc1cc(C(=O)C(=O)N2CCCC[C@H]2C(=O)OC(CCCc2cccnc2)CCCc2cccnc2)cc(OC)c1OC ; pIC50 = 5.57

* * *

assayText: in vivo
measurementParameters: FVB, mouse, portal vein plasma, oral, 10 mg/kg
metricName: concentration at 30 min (nM)
Numeric only. Scale: nM

Entry CC(=O)O[C@H]1C(=O)[C@@]2(C)[C@H]([C@H](OC(=O)c3ccccc3)[C@]3(O)C[C@H](OC(=O)[C@H](O)[C@@H](NC(=O)c4ccccc4)c4ccccc4)C(C)=C1C3(C)C)[C@]1(OC(C)=O)CO[C@@H]1C[C@@H]2O ; concentration at 30 min = 1090

Values compiled from paper PMC7999658.
